Assay: Drug cytotoxicity on cells, CellTiter-Glo kit
Type: cell-based
Details: African green monkey; Vero-E6 cells, 24 hours
CC50 at 24 h values, listed per item
recorded.metric: CC50 at 24 h

# structure.string, recorded.metric, data.value
records = [
    ("CCC(CC)COC(=O)[C@H](C)N[P@](=O)(OC[C@H]1O[C@@](C#N)(c2ccc3c(N)ncnn23)[C@H](O)[C@@H]1O)Oc1ccccc1", "CC50 at 24 h", "160 µM"),
    ("COc1ccc2cc1Oc1ccc(cc1)C[C@H]1c3cc(c(OC)cc3CCN1C)Oc1c(OC)c(OC)cc3c1[C@H](C2)N(C)CC3", "CC50 at 24 h", "24.5 µM"),
]

====

Test system: SARS-CoV-2 virus (nCoV-2019BetaCoV/Wuhan/WIV04/2019 isolate)
Assay: microbe, parasite or virus in culture
Type: cell-based
Conditions: Severe acute respiratory syndrome coronavirus 2, Vero C1008, Example 2, no drug pretreatment, MOI 0.05, Vero E6; read-out: EC50
EC50 values, listed per item

# molecule, unit, EC50
measured = [
    ("CCN(CC)CCCC(C)Nc1ccnc2cc(Cl)ccc12 (centres unmarked) [Chloroquine phosphate, chloroquine phosphate]", "nM", 3630),
    ("COc1ccc2cc1Oc1ccc(cc1)C[C@H]1c3cc(c(OC)cc3CCN1C)Oc1c(OC)c(OC)cc3c1[C@H](C2)N(C)CC3", "nM", 1950),
]

====

System: SARS-CoV-2 virus (nCoV-2019BetaCoV/Wuhan/WIV04/2019 isolate)
Test: microbe, parasite or virus in culture
Format: cell-based
Settings: Severe acute respiratory syndrome coronavirus 2, Vero C1008, Example 2, no drug pretreatment, MOI 0.05, Vero E6
pEC50: −log10 of the molar value.

# molecule, pEC50
rows = [
    ("CCC(CC)COC(=O)[C@H](C)N[P@](=O)(OC[C@H]1O[C@@](C#N)(c2ccc3c(N)ncnn23)[C@H](O)[C@@H]1O)Oc1ccccc1 [Remdesivir]", 6.21),
]
